Test system: CCRIS mutagenicity, Ames/micronucleus/aberration tests
Experiment: CCRIS mutagenicity studies
Details: Test System: AMES SALMONELLA TYPHIMURIUM; Strain/Indicator: TA98; Metabolic Activation: NONE; Method: STANDARD PLATE
Calls of active or inactive are those of the source. The rule behind the calls is not given here.
property-name: mutagenic call

c1ccc2c(c1)ccc1cc3ccc4ccncc4c3cc12; inactive; negative
CC(=O)Nc1ccc(S(=O)(=O)c2ccc(NC(C)=O)cc2)cc1; inactive; negative
CCN(CC)c1cc(NC(C)=O)c(N=Nc2ccc([N+](=O)[O-])cc2)cc1OC; active; positive
N#CC(Br)Br; inactive; negative
CN1CC[C@@]2(C)c3cc(O)ccc3N(C)[C@@H]12; inactive; negative
O=C(/C=C/c1ccc(Oc2ccccc2)cc1)c1ccccc1; inactive; negative
O=[N+]([O-])c1cc(NS(=O)(=O)c2cccc3cccnc23)ccc1Cl; inactive; negative
C(=Nc1ccccc1)c1cccc2cccnc12; inactive; negative
O[C@@H]1[C@@H]2O[C@@H]2c2c(ccc3nc4ccc5ccccc5c4cc23)[C@H]1O; active; positive
C=C(C)c1ccc(C)c2ccc(C=O)c-2c1; inactive; negative

Let's switch to this compound now.
Problem: Please report the recorded mutagenic call for "Cc1c2ccccc2cc2ccccc12" .
Result: inactive; negative

Each recorded value in this set is attributed to PubChem BioAssay AID1259407.
